Numbers sourced from ChEMBL document CHEMBL1140497.

Values of IC50 reported for UniProt Q04609 appear below.
Sequence (Q04609 whole entry): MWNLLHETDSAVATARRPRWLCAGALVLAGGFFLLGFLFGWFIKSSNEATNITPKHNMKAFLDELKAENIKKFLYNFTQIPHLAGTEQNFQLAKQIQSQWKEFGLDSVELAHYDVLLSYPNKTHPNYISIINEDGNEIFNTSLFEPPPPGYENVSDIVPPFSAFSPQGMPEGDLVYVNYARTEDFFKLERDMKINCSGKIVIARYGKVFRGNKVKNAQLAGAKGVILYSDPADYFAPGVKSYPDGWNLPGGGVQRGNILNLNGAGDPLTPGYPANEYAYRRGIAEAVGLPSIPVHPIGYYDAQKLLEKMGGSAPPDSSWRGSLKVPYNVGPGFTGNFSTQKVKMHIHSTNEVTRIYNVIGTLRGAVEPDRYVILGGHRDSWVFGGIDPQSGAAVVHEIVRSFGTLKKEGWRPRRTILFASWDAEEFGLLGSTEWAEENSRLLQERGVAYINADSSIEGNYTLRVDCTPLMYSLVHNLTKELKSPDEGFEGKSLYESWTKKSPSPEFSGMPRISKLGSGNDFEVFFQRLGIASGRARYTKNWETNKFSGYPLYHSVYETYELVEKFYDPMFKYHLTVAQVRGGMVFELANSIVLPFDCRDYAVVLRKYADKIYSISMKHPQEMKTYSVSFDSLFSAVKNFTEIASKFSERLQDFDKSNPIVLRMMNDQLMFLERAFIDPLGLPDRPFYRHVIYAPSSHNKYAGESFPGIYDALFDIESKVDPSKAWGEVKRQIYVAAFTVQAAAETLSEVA
// return numeric value only (unit: nM, not printed)

Fill blank: measured IC50 of the molecule `CN(C(=O)c1ccccc1)[C@@H](COP(=O)(O)N[C@@H](CCC(=O)O)C(=O)O)C(=O)O` is ____. 55

Fill blank: measured IC50 of the molecule `CN(CCOP(=O)(O)N[C@@H](CCC(=O)O)C(=O)O)C(=O)c1ccccc1` is ____. 280

Fill blank: measured IC50 of the molecule `O=C(O)CC[C@H](OP(=O)(O)O)C(=O)O` is ____. 15

Fill blank: measured IC50 of the molecule O=C(O)CC[C@H](NP(=O)(O)OCC(CCc1ccccc1)C(=O)O)C(=O)O (stereo not given in full) is ____. 790

Fill blank: measured IC50 of the molecule `O=C([O-])CC[C@H](NP(=O)([O-])OC[C@H](NC(=O)c1ccccc1)C(=O)[O-])C(=O)[O-].[K+].[K+].[K+].[K+]` is ____. 35

Fill blank: measured IC50 of the molecule `O=C(O)CC[C@H](NP(=O)(O)OCCNC(=O)c1ccccc1)C(=O)O` is ____. 1800

Fill blank: measured IC50 of the molecule `O=C(O)CC[C@H](NP(=O)(O)OC[C@@H](NC(=O)c1ccccc1)C(=O)O)C(=O)O` is ____. 700

Fill blank: measured IC50 of the molecule `O=C(O)CC[C@H](NP(=O)(O)OCCCCc1ccccc1)C(=O)O` is ____. 180
